Molecular target: Androgen receptor (Homo sapiens)
Sequence (P10275 whole entry): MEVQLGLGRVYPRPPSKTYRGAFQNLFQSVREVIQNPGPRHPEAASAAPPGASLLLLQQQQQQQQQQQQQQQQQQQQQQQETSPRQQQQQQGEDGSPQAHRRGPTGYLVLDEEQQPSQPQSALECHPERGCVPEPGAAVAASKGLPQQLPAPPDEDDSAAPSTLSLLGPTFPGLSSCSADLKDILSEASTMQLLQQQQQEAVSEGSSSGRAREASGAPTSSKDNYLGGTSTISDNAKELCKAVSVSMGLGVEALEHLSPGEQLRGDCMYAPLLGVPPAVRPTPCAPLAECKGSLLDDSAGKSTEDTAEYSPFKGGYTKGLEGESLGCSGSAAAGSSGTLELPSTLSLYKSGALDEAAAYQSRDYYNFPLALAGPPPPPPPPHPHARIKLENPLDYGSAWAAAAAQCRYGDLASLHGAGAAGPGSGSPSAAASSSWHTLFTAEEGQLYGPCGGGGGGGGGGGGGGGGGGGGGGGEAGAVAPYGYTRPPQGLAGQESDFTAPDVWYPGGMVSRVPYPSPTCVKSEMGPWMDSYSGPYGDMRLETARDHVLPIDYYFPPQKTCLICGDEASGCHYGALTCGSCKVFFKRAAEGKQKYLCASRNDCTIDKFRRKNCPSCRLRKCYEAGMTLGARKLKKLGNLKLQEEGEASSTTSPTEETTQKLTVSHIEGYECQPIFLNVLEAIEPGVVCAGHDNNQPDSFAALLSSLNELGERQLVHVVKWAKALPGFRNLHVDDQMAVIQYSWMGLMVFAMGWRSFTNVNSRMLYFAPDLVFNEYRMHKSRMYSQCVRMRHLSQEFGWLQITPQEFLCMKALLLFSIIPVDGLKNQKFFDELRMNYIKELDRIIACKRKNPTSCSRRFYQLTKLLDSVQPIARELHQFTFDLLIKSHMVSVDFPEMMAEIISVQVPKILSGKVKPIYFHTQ
Assay: Displacement of [3H]R1881 from pSG5-tagged human androgen receptor expressed in COS1 cells assessed as relative binding inhibition
Assay type: cell-based, COS-1
Would you kindly list pIC50 for each of these compounds?
Give bare numbers, as −log10 of the molar value.

// solved cases for pIC50 follow
Compound | Numeric Result
Cc1c(N2C3CCC2CC(C)(O)C3)ccc(C#N)c1Cl (stereo not drawn) | 8.68
CS(=O)(=O)NC1C[C@@H]2CC[C@@H](C1)N2c1ccc(C#N)c(C(F)(F)F)c1 (relative stereo) | 5.58
N#Cc1ccc(N2[C@H]3CC[C@H]2CC(O)C3)cc1C(F)(F)F (relative stereo) | 7.40
CC1(O)C[C@@H]2CC[C@@H](C1)N2c1ccc(C#N)c(C(F)(F)F)c1 (relative stereo) | 7.53
CCS(=O)(=O)NC1C[C@@H]2CC[C@@H](C1)N2c1ccc(C#N)c(C(F)(F)F)c1 (relative stereo) | 5.69

// for each compound in input: emit pIC50
1. N#Cc1ccc(N2C3CCC2CC(=O)C3)cc1C(F)(F)F
2. N#Cc1ccc(N2[C@@H]3CC[C@H]2C[C@@H](O)C3)cc1Cl
3. N#Cc1ccc(N2[C@H]3CC[C@H]2CC(NCc2ccccc2)C3)cc1C(F)(F)F (relative stereo)

**Result**
1. 7.18
2. 7.50
3. 6.63

###

Target: UniProtKB P10275
Experiment: Antagonist activity against pSG5-tagged human androgen receptor expressed in COS1 cells assessed as reduction in receptor-mediated transcriptional activity by AR-regulated rat probasin promoter fragment driven firefly luciferase reporter assay
Type: cell-based, COS-1
Mark YES for IC50 under 0.2 µM, NO if at or over.

Compound | Qualitative Label
CCS(=O)(=O)NC1C[C@@H]2CC[C@@H](C1)N2c1ccc(C#N)c(C(F)(F)F)c1 (relative stereo) | NO
N#Cc1ccc(N2[C@H]3CC[C@H]2CC(O)C3)cc1C(F)(F)F (relative stereo) | YES
CS(=O)(=O)NC1C[C@@H]2CC[C@@H](C1)N2c1ccc(C#N)c(C(F)(F)F)c1 (relative stereo) | NO
Cc1c(N2C3CCC2CC(C)(O)C3)ccc(C#N)c1Cl (stereo not drawn) | YES
N#Cc1ccc(N2[C@H]3CC[C@H]2CC(NCc2ccccc2)C3)cc1C(F)(F)F (relative stereo) | NO

**Query** Answer whether the compound CC1(O)C[C@@H]2CC[C@@H](C1)N2c1ccc(C#N)c(C(F)(F)F)c1 (relative stereo) has IC50 strictly less than 0.2 µM
**Result** YES

**Query** Answer whether the compound "N#Cc1ccc(N2[C@@H]3CC[C@H]2C[C@@H](O)C3)cc1Cl" has IC50 strictly less than 0.2 µM
**Result** YES

**Query** Answer whether the compound "N#Cc1ccc(N2C3CCC2CC(=O)C3)cc1C(F)(F)F" has IC50 strictly less than 0.2 µM
**Result** YES
